System: Escherichia coli
The reader will find reported MIC values listed item by item below.
Quick reminder: number only, in µM, skip the unit.

Solved entries (count: 2):
Problem: GET MIC | system: Escherichia coli | item: `CC(C)C[C@H](NC(=O)[C@@H](NC(=O)[C@H](CCCCN)NC(=O)[C@H](CO)NC(=O)[C@H](C)NC(=O)[C@@H](NC(=O)[C@H](CCCCN)NC(=O)[C@H](Cc1ccccc1)NC(=O)[C@H](CC(C)C)NC(=O)[C@H](C)NC(=O)CN)C(C)C)C(C)C)C(=O)O`
Result: 177

Problem: GET MIC | system: Escherichia coli | item: CC[C@H](C)[C@H](NC(=O)[C@@H]1CCCN1C(=O)[C@@H](N)CCC(=O)O)C(=O)N1CCC[C@H]1C(=O)N[C@@H](CC(C)C)C(=O)N[C@@H](CCC(=O)O)C(=O)N[C@@H](CO)C(=O)N[C@@H](CCCN=C(N)N)C(=O)N[C@@H](CCC(=O)O)C(=O)N[C@@H](CCC(=O)O)C(=O)O [EPIPLESREE]
Result: 2090

Next:
Problem: GET MIC | system: Escherichia coli | item: `CC(C)C[C@H](NC(=O)[C@@H](N)Cc1ccccc1)C(=O)N[C@@H](CO)C(=O)N[C@@H](Cc1ccccc1)C(=O)N1CCC[C@H]1C(=O)N[C@H](C(=O)N[C@H](C(=O)N[C@@H](CCCCN)C(=O)N[C@H](C(=O)N[C@@H](Cc1ccc(O)cc1)C(=O)N[C@@H](Cc1ccccc1)C(=O)N1CCC[C@H]1C(=O)N[C@@H](Cc1cnc[nH]1)C(=O)O)[C@@H](C)O)[C@@H](C)O)[C@@H](C)O`
Result: 9
